# Target Or System: T1, anti-human Fc (Jackson ImmunoResearch, 109-006-008)
# T1 construct: Coated on a control plate to capture the chimeric IgG1 antibodies through their human Fc; also called IgG
# Protocol Description: ELISA, IgG titrated on coated anti-human Fc; fit printed as IC50
Parameter: IC50 (µg/mL)

- ERR2-302 (mAb004) (antibody, human IgG1, V domains shown, Full-length chimeric rabbit/human IgG1, human IgH-gamma1 and IgL-lambda constant regions; C-terminal tags HC: LPETG-Strep, LC: G5SLPETG-Strep) VH: QKQLVESGGGLVKPGGSLTLTCTVSGFSLSSYAIGWVRQAPGNGLEWIGIINSYGSTYYASWAKSRSTITRNTNLNTVTLKMTSLTAADTATYFCARSPYGYVSAWGYHRLDLWGQGTLVTISS VL: SYELTQLPSVSVSLGQTARITCGGASIGSKVVHWYQQKPGLAPGLLIYDDDERPSGVPDRFSGSNSGDTATLTISGAQAGDEAEYYCQLWDGSDVVFGGGTQLTVTG: 0.0322
- ERR2-316 (mAb005) (antibody, human IgG1, V domains shown, Full-length chimeric rabbit/human IgG1, human IgH-gamma1 and IgL-kappa constant regions; C-terminal tags HC: LPETG-Strep, LC: G5SLPETG-Strep; also called mAb0005) VH: QKQLVESGGRLVTPGGSLTLTCTVSGFSLSKYGVSWVRQAPGSGLEYIGTIGGSGTSYYASWAKSRSTITRNTNLNTVTLKMTSLTAADTATYFCARYFGWNTGFDIWGPGTLVTISS VL: DPVMTQTPSSVSEPVGGTVTIKCQASQSISNALAWYQQKPGQPPKRLIYKASTPASGVPSRFKGSRSGTEYTLTISGVQREDAATYYCLGFSVVSNDGWAFGAGTNVEIK: 0.04
- ERR2-Top35 (mAb130) (antibody, V domains shown) VH: QSVKESEGGLFKPMDTLTLTCTVSGFSLNTYGVSWVRQAPGNGLEWIGAVGSSGATNYASWAKSRSTITRNTNENTVTLKMTSLTAADTATYFCARDGYYSSGWGPYFSIWGPGTLVTVSS VL: SFVLTQPASVQVNLGQTVSLTCTAETLRSSYASWYQQKPGQAPVLLIYRDTSRPSGVPDRFSGSSSGNTATLTISGAQAGDEADYYCATSDGSGSRYYVFGGGTQLTVTG: 0.0419
- ERR2-317 (mAb006) (antibody, human IgG1, V domains shown, Full-length chimeric rabbit/human IgG1, human IgH-gamma1 and IgL-kappa constant regions; C-terminal tags HC: LPETG-Strep, LC: G5SLPETG-Strep) VH: QSLEESGGRLVTPGTPLTLTCTASGFSLSSYDMIWVRQAPGKGLEYIGIINAGGNTYYASWAKGRFTISRTSTTVDLKMTSPTTEDTATYFCARGSSWTGDIWGPGTLVTVSS VL: DPVLTQTPSSTSAAVGGTVTIKCQASQSISSYLSWYQQKPGQPPKQLIYAASTLASGVPSRFKGSGSGTEYTLTISGVQREDAATYYCLGGYASASYQTAFGGGTKVEIK: 0.0391
- XBR2-327 (mAb007) (antibody, human IgG1, V domains shown, Full-length chimeric rabbit/human IgG1, human IgH-gamma1 and IgL-kappa constant regions; C-terminal tags HC: LPETG-Strep, LC: G5SLPETG-Strep) VH: QEQLKESGGGLFKPTDTLTLTCTVSGFSLSSGAISWVRQAPGNGLEYIGFVNSLGNTYYANWAKSRSAITRNTNENTVTLKMTSLAAADTATYFCAKDYGNWAFDPWGPGTLVTVSS VL: DPVLTQTPSSVSAAVGGTVAINCQASQSISSYLSWYQQKPGQPPKLLIYGASKLASGVPSRFSGSGSGTEYTLTISGVQREDAATYYCLGGYASASYRTAFGGGTKLEIK: 0.0433
- XBR2-401 (mAb003) (antibody, human IgG1, V domains shown, Full-length chimeric rabbit/human IgG1 (kappa) with C-terminal tags HC: LPETG-Strep, LC: G5SLPETG-Strep) VH: QSVKESEGGLFKPTDTLTLTCTVSGFSLSSYGVTWVRQAPGSGLEWIGYINTAGNTYYASWAKSRSTITRNTNENTVTLKMTSLTAADTATYFCARDWTSLNIWGPGTLVTVSS VL: DPMLTQTPSSTSTAVGDTVTIKCQASQSISSDLSWYQQKPGQRPKLLIYQASTLASGVPSRFKGSGYGTEYTLTISGVQREDAAIYYCLGGYADASYRTAFGGGTKLEIK: 0.0856
- ERR2-308 (mAb037) (antibody, human IgG1, V domains shown, Full-length chimeric rabbit/human IgG1, human IgH-gamma1 and IgL-kappa constant regions; C-terminal tags HC: LPETG-Strep, LC: G5SLPETG-Strep) VH: QEQLEESGGRLVTPGTPLTLTCAVSGFSLSNYAMGWVRQAPGEGLEYIGWISAGGGAYYASWVNGRFTISKTSSTVDLKMTSLTAADTATYFCARGASNGCDLWGPGTLVTVSS VL: DPMLTQTPSSVSAVVGGTVTIKCQASQSITSWLSWYQQKPGQPPKLLIYGASHLASGVPSRFKGSGYGTEFTLTISGIQREDAATYYCLGGYSNSDIVFGGGTELEIL: 0.0336
